Each record here notes measured MIC.
Test system: Mycobacterium tuberculosis
TEST_METHOD_NOTES: Antitubercular activity against Mycobacterium tuberculosis H37Rv ATCC 27294 after 5 to 8 days by BACTEC 12B method
Assay type: functional
Express your answer in µg/mL, writing the number without its unit.

| STRUCTURE | RESULT_UNIT | MIC |
| --- | --- | --- |
| C/C(=N\n1c(/N=C/c2ccc([N+](=O)[O-])cc2)c(C#N)c(-c2ccc([N+](=O)[O-])cc2)c(C#N)c1=O)c1nc2ccccc2[nH]1 | µg/mL | 32.2 |
| C/C(=N\n1c(/N=C/c2ccc(O)cc2)c(C#N)c(-c2ccc([N+](=O)[O-])cc2)c(C#N)c1=O)c1nc2ccccc2[nH]1 | µg/mL | 30.9 |

// moving on: another record for MIC
Identify the reported MIC for the following entry. C/C(=N\n1c(/N=C/c2cccc(F)c2)c(C#N)c(-c2ccc([N+](=O)[O-])cc2)c(C#N)c1=O)c1nc2ccccc2[nH]1
25.4

====

System: Pseudomonas aeruginosa
TEST_METHOD_NOTES: Antimicrobial activity against Pseudomonas aeruginosa MTCC-1688 after 24 hrs by broth dilution method
Type: functional
CONDITION_INFO: MTCC-1688, 24 h
REPORTED_ENDPOINT: MIC (µg/mL)
Express your answer in µg/mL, writing the number without its unit.

Known MIC results, listed for orientation:
| STRUCTURE | OBSERVED_VALUE |
| --- | --- |
| C/C(=N\n1c(/N=C/c2ccc(Cl)cc2)c(C#N)c(-c2ccc([N+](=O)[O-])cc2)c(C#N)c1=O)c1nc2ccccc2[nH]1 | 100 |
| C/C(=N\n1c(/N=C/c2cccc(Br)c2)c(C#N)c(-c2ccc([N+](=O)[O-])cc2)c(C#N)c1=O)c1nc2ccccc2[nH]1 | 25 |
| C/C(=N\n1c(/N=C/c2ccccc2)c(C#N)c(-c2ccc([N+](=O)[O-])cc2)c(C#N)c1=O)c1nc2ccccc2[nH]1 | 500 |
| C/C(=N\n1c(/N=C/c2ccccc2O)c(C#N)c(-c2ccc([N+](=O)[O-])cc2)c(C#N)c1=O)c1nc2ccccc2[nH]1 | 500 |
| C/C(=N\n1c(/N=C/c2cccc(F)c2)c(C#N)c(-c2ccc([N+](=O)[O-])cc2)c(C#N)c1=O)c1nc2ccccc2[nH]1 | 250 |

Identify the reported MIC for the following entry. COc1cccc(/C=N/c2c(C#N)c(-c3ccc([N+](=O)[O-])cc3)c(C#N)c(=O)n2/N=C(\C)c2nc3ccccc3[nH]2)c1
500

Identify the reported MIC for the following entry. C/C(=N\n1c(/N=C/c2ccc(O)cc2)c(C#N)c(-c2ccc([N+](=O)[O-])cc2)c(C#N)c1=O)c1nc2ccccc2[nH]1
500

Identify the reported MIC for the following entry. C/C(=N\n1c(/N=C/c2cccc(C)c2)c(C#N)c(-c2ccc([N+](=O)[O-])cc2)c(C#N)c1=O)c1nc2ccccc2[nH]1
100

Identify the reported MIC for the following entry. C/C(=N\n1c(/N=C/c2cccc(O)c2)c(C#N)c(-c2ccc([N+](=O)[O-])cc2)c(C#N)c1=O)c1nc2ccccc2[nH]1
250

Identify the reported MIC for the following entry. C/C(=N\n1c(/N=C/c2ccc(C)cc2)c(C#N)c(-c2ccc([N+](=O)[O-])cc2)c(C#N)c1=O)c1nc2ccccc2[nH]1
250
